Molecular target: T1, human CD131 (human, UniProt P32927 17-897)
T1 sequence: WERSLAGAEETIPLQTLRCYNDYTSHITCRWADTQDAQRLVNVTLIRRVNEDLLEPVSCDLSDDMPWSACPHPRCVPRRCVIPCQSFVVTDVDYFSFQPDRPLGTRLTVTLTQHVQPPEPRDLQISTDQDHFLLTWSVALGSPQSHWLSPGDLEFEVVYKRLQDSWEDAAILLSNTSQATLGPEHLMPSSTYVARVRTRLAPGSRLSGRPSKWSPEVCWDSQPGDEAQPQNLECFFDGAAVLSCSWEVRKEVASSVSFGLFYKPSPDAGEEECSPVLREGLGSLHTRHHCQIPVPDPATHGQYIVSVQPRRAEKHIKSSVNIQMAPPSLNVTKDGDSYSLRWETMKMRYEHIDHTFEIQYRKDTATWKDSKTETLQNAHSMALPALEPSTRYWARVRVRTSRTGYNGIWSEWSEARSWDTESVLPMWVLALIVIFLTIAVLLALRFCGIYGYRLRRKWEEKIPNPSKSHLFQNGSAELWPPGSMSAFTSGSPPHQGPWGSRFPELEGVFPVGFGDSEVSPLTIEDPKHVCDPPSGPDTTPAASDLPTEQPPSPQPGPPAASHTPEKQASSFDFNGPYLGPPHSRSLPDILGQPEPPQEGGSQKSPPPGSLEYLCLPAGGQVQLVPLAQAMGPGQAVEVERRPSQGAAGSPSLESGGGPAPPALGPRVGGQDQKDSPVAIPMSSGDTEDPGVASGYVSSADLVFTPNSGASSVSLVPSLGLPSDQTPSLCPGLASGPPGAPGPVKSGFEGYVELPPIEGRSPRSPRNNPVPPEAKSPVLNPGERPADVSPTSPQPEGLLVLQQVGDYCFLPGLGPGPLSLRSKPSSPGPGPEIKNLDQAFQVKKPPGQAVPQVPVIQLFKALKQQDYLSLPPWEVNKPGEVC
Test: cell-based or functional assay
Would you kindly list IC50 GM-CSF, TF-1 proliferation for each of these binders?
Give bare numbers, in nM.

Examples with their reported IC50 GM-CSF, TF-1 proliferation follow.
>  <binder>
9A2-VR44 (antibody, V domains shown) VH: EVQLLESGGGLVQPGGSLRLSCAASGFTFSHYHMLWVRQAPGKGLEWVSSIRSSGGFTYYADSVKGRFTISRDNSKNTLYLQMNSLRAEDTAVYYCARFYDSHFDIWGQGTMVTVSS VL: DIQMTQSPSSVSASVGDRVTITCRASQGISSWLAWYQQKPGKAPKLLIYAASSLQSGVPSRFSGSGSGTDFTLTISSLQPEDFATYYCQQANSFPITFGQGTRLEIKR

>  <result.number>
36.4

$$$$
>  <binder>
9A2-VR50 (antibody, V domains shown) VH: EVQLLESGGGLVQPGGSLRLSCAASGFTFSHYHMLWVRQAPGKGLEWVSSIRSSGGFTYYADSVKGRFTISRDNSKNTLYLQMNSLRAEDTAVYYCARFYSDHFAPWGQGTMVTVSS VL: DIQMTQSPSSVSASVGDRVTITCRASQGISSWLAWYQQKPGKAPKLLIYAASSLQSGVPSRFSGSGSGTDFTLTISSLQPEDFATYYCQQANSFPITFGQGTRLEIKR

>  <result.number>
46.5

$$$$
>  <binder>
9A2-VR34 (antibody, V domains shown) VH: EVQLLESGGGLVQPGGSLRLSCAASGFTFSHYHMLWVRQAPGKGLEWVSSISGSHFPTYYADSVKGRFTISRDNSKNTLYLQMNSLRAEDTAVYYCARFYDSFFDIWGQGTMVTVSS VL: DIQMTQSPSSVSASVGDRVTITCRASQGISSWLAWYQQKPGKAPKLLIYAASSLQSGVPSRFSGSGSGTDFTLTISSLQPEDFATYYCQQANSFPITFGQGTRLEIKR

>  <result.number>
184

$$$$

Working through the 5 binders below one at a time, give IC50 GM-CSF, TF-1 proliferation for each.
1. 9A2-VR41 (antibody, V domains shown) VH: EVQLLESGGGLVQPGGSLRLSCAASGFTFSHYHMLWVRQAPGKGLEWVSSINGKGWTTYYADSVKGRFTISRDNSKNTLYLQMNSLRAEDTAVYYCARFYDSFFDIWGQGTMVTVSS VL: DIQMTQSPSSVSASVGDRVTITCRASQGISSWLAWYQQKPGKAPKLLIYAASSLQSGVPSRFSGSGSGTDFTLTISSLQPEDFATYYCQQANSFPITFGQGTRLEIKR
2. 9A2-VR47 (antibody, V domains shown) VH: EVQLLESGGGLVQPGGSLRLSCAASGFTFSHYHMLWVRQAPGKGLEWVSSIRSSGGFTYYADSVKGRFTISRDNSKNTLYLQMNSLRAEDTAVYYCARFYSDHFSPWGQGTMVTVSS VL: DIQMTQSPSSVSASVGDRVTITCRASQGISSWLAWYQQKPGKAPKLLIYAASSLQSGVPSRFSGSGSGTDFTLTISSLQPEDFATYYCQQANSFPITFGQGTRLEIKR
3. 9A2-VR8 (antibody, V domains shown) VH: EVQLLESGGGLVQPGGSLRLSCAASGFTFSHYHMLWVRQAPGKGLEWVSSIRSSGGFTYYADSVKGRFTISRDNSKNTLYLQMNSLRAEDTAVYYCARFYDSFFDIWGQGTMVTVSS VL: DIQMTQSPSSVSASVGDRVTITCRASQGVRPFISWYQQKPGKAPKLLIYAASSLQSGVPSRFSGSGSGTDFTLTISSLQPEDFATYYCQQANSFPITFGQGTRLEIKR
4. 9A2-VR33 (antibody, V domains shown) VH: EVQLLESGGGLVQPGGSLRLSCAASGFTFSHYHMLWVRQAPGKGLEWVSSINGSGWTTYYADSVKGRFTISRDNSKNTLYLQMNSLRAEDTAVYYCARFYDSFFDIWGQGTMVTVSS VL: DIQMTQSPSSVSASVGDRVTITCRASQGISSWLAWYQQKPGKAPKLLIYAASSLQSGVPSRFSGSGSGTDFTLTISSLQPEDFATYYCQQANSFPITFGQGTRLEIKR
5. 9A2-VR24 (antibody, V domains shown) VH: EVQLLESGGGLVQPGGSLRLSCAASGFTFPWYRVHWVRQAPGKGLEWVSSIRSSGGFTYYADSVKGRFTISRDNSKNTLYLQMNSLRAEDTAVYYCARFYDSFFDIWGQGTMVTVSS VL: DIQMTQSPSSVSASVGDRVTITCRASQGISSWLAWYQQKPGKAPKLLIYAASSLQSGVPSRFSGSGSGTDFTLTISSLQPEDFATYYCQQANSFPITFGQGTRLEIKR

1. 7
2. 27.2
3. 57.7
4. 602
5. 2.5
